measured target: T1, human PD-L1-Fc (SinoBiological) (human, UniProt Q9NZQ7 19-239)
T1 construct: Bought; not shown: Fc of a bought fusion protein
T1 sequence (Q9NZQ7 19-239 limits assumed): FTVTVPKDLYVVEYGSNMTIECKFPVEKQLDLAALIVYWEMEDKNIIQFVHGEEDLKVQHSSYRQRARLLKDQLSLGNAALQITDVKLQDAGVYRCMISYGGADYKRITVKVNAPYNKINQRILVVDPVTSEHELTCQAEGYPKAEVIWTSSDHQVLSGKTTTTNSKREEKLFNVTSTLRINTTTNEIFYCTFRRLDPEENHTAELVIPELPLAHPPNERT
run description: BLI (Octet RED96), VHH on Penta-HIS sensor, human PD-L1-Fc in solution
parameter measured: koff (s⁻¹)

// query Please look up its koff: 2LIG189 VHH-(His)6 (pHEN6C-PelB-PD-L1 VHH-(His)6) (VHH) VHH: QVQLQESGGGLVQAGGSLRLSCAASGKIFSGNDMGWYRQAPGKQRELVGIITSGGITDYADAVKGRFTISRDNAKNMMYLQMNSLKPEDTAVYYCNMRDRTIWWGQGTQVTVSS
// result 0.000524

P. 2LIG99 VHH-(His)6 (pHEN6C-PelB-PD-L1 VHH-(His)6) (VHH) VHH: QVQLQESGGGLVQAGGSLRLSCTASGTIFSINRMDWFRQAPGKQRELVALITSDGTPAYADSAKGRFTISRDNTKKTVSLQMNSLKPEDTAVYYCHVSSGVYNYWGQGTQVTVSS
Q. 2LIG176 VHH-(His)6 (pHEN6C-PelB-PD-L1 VHH-(His)6) (VHH) VHH: QVQLQESGGGLVQAGGSLRLSCAASESIFSIEAMGWYRQAPGKQRELVAAIFGGGFTNYADSVKGRFTISRDNANRTVYLQMNSLKPEDTAVYYCNADLVSGSSRLYDYWGQGTQVTVSS
// query Please choose the item with the lower koff value from this pair: P and Q Return value: the label identifying the chosen record.
// result P
(P: 0.000634 s⁻¹, Q: 0.00805 s⁻¹)

Cited source: patent US20250361305A1
